# TEST PROTOCOL: label from the status in PepcDB records
QUANTITY KIND: protein production

{"BIOSEQUENCE": "MSLFPGDIEELARRIITDFTPLGLMVSTAESCTGGLIAGALTEIAGSSAVVDRGFVTYTNDAKRDMLGVGTETLTTFGAVSRQTALQMAHGALYRSRANFAVAVTGIAGPGGGSAEKPVGLVHLATKARNGNVLHHEMRYGDIGRTEIRLATVRTALEMLIALNQAGSV", "QUANTITY KIND": "protein production", "VALUE REPORTED": "not failed"}
{"BIOSEQUENCE": "MLNTLIVGASGYAGAELVSYVNRHPHMTITALTVSAQSNDAGKLISDLHPQLKGIVDLPLQPMSDVRDFSADVDVVFLATAHEVSHDLAPQFLQAGCVVFDLSGAFRVNDRAFYEKYYGFTHQYPELLEQAVYGLAEWNVDKLNTANLIAVPGCYPTAAQLSLKPLIDGGLLDLTQWPVINATSGVSGAGRKAAISNSFCEVSLQPYGVFTHRHQPEIAVHLGAEVIFTPHLGNFPRGILETITCRLKAGVTHAQVADVLQKAYGDKPLVRLYDKGVPALKNVVGLPFCDIGFAVQGEHLIVVATEDNLLKGAAAQAVQCANIRFGFAETQSLI", "QUANTITY KIND": "protein production", "VALUE REPORTED": "not failed"}
{"BIOSEQUENCE": "MTTNTIMEQEARTAPQKIAEQLLANDAITESLGSVLREFKPKFVMIVGRGSSDHAGVFAKYLFEIEASIPTFAAAPSVASVYGKTLKLAGGLVIVISQSGRSPDILAQARMAKNAGAFCVALVNDETAPIKDIVDVVIPLRAGEEKAVAATKSYLATLSALLQVAAKWTQNESLVEAVNSLPQALQAAVDAEPQLRAGSLTDVKNLVVLGRGFGYAVSKEIALKLKEVCAIHAEAFSSAEFLHGPVTLVEKKLSILDVCIRDESYGSHVEQIANVKQRGANLIHLHQTSADIHPRIAPLALLQRFYIDVAAVAIALGINPDKPAGLKKVTQTL", "QUANTITY KIND": "protein production", "VALUE REPORTED": "not failed"}

* * *

# TEST PROTOCOL: label from the status in PepcDB records
QUANTITY KIND: protein production

{"BIOSEQUENCE": "MQDLIKQYNTTLRQLREAQKDAKEEDVKVLTDMISDITYSLEWMKKARRPGNRRGVERLAAYQRERACDPLLMQRYFRSMDDNLYEWDNHQQEHSIGEWDKVRLEDALSLLTEREKEVYLMSRGYCLTYREIARYLDITCSTVQSMIERAEKKIARQVNESLFCNCG", "VALUE REPORTED": "failed"}
{"BIOSEQUENCE": "MRDWPAFLLALLVAFALWYSLQERAPVVERSLKVPLQVVGLGEGRRALGLPREVLLRLRGPAPLLEGRALPVSAYLDLSGAEGEVVREVRVAAPQGVEVLEVVPARVGVVVEVEAQRQIPVEVLAQGAWVLTDPAFVEAVGPESQVEAAVSAVGLDLGDEVVLFPLGPEGPLEGVELRPNRVRVVERREALFLKEVPLSLNPPPGRRLLDYAPKTVRLVGPREALEGLAGVTATLQEALGPGEVEVAVAPDLPPGVHTLGPVRVRVALELEHHHHHH", "VALUE REPORTED": "failed"}
{"BIOSEQUENCE": "MSGLRVYSTSVTGSREIKSQQSEVTRILDGKRIQYQLVDISQDNALRDEMRTLAGNPKATPPQIVNGNHYCGDYELFVEAVEQDTLQEFLKLA", "VALUE REPORTED": "not failed"}
{"BIOSEQUENCE": "MQYGAIVVTFNRKQLLIESITALLNQTVPPAKIIIIDNHSTDGTKAELQTADILANPSVDYRYLTKNIGGAGGFARGMQIAAADPNLDWASMSDDDAIFEPDYFEKLIAYQQDHPNRQILTGSVYIEDGRLQADQRNRFTNWSTFQAQAVPEREYRGNFEFDQYTFCGVFMSVAVIKQVGVADAGYFIWWDDCEYAVRTAKLSRPVNVSAAKLIHKTALPSLDFKSKFVPDWRLYYGQRNRLITIKRWRANSLVSLGWLLGFYARLAIQLCGPFYRGYRKMVIRVYLEALRDASREREGLNPNFMPGQKFLEHHHHHH", "VALUE REPORTED": "not failed"}
{"BIOSEQUENCE": "MKKKMITTIIAMLVIVVMLLPTKLGPVIDKYNPFYKTKEYYTVVNTIGQHVGDEWYEYEFIAFDERGKEQKIKKTVKHMLKRDEMLKVYAKGRYGESIEEIEAVNIPINAKSKLLSMRLEHHHHHH", "VALUE REPORTED": "not failed"}

Value of protein production reported for the sequence MEGNQAGSSLDSLIASFNKRIGELQELVIARNMYPASTIPDLSAIDTALSSMELQVQSIKDRLREETEAIPKAKKLIEASLKQQGKLQKMSIYAPSHFPDKATMLNSDLNRCLLQENAKQYEQHSTLSSLKFDEEAAVLPKEKKGRGSPPLWYITVEELNSLSSYMRGRLTLEKVNAAINDMASYAEANAHLIAASKQKLAENLWEKALKLRDIVTEQAVKGKHFFLETDMKGPSLKLDNTGKAILTVLRHLGRISETRIGQNRVIILMKPH is failed

Value of protein production reported for the sequence MSLCRLARKNIRTFATKRMKQFMWIAMSIMILFFMISLQFNEGAILKVGDAFVFQMYFYTLFIVLIFICIFTTYKMMYSLLLVRREEFTSYVAENIKRKEVLCLLCQEQLFIYGAAFVFGLVNGMLFLKLFTIIFIRIAGIQGINSAPITIYAIVVVSIIMIVILLLSMVQCFRFVQSLQDKNSLHFKKKA is failed

Recorded values, source a protein production outcome set (Wang et al. 2014).
